Test: Inhibition of rabbit small-intestinal Acyl coenzyme A:cholesterol acyltransferase 1
Parameters: species or system Oryctolagus cuniculus
test-readout: log10 of IC50 (log10 of the value in µM)
Form field - Quantity: IC50; Unit: µM; Scale: log10

CCCCCCCCCCC(C)(C)C(=O)Nc1c2c(cc([N+](=O)[O-])c1OC)C(=O)CCO2: -1.47
CCCCCCCCCCOc1ccc2c(c1NC(C)=O)OCCC2=O: -0.52
CCCCCCCCCCC1(C(=O)Nc2c(C)ccc3c2NCCC3=O)CCCC1: -0.37
COc1ccc2c(c1NC(=O)C(C)(C)CCCCCCOCC(C)C)OCCC2=O: -1.59

**Query** Which log10 of IC50 value is on record for `CCCCCCCCCCOc1ccc2c(c1NC(=O)c1ccc(OCCCCCCOc3ccc(Cl)cc3)cc1)OCCC2=O` ?
**Result** -0.27

**Query** Item `COc1ccc2c(c1NC(=O)C(C)(C)CCCc1ccc(CC(C)C)cc1)OCCC2=O` has what recorded log10 of IC50?
**Result** -1.77

**Query** Consider the compound `CCCCCCCCCCC1(C(=O)Nc2c(C)ccc3c2OCCC3=O)CCCC1` and give its measured log10 of IC50.
**Result** -0.77

**Query** Given the entry `CCCCCCCCCCC(C)(C)C(=O)Nc1c(Cl)ccc2c1OCCC2=O` , report its measured log10 of IC50.
**Result** -0.82

**Query** I'd like to know its log10 of IC50. The compound in question is `COc1ccc2c(c1NC(=O)C(C)(C)CCCCCCOc1ccc(Cl)cc1)C(=O)CCO2`
**Result** -0.74

====

Quick reference for IC50 among some compounds
Species on record: Rattus norvegicus
Assay: IC50 is the concentration that inhibits 50% of the enzyme activity was evaluated by measuring the ability to inhibit acetyl-LDL-induced cholesteryl ester accumulation in rat peritoneal macrophages.
Format: functional
// units = nM; emit number, no label

Example entries begin here.
CCCCCCCCCCC(C)(C)C(=O)Nc1c(OC)cc(OC)cc1OC: 3800
CCCCCCCCCCOc1ccc2c(c1NC(=O)C(C)(C)C)OCCC2=O: 130
CCCCCCCCCCC(C)(C)C(=O)Nc1c(OC)ccc2c1OCCC2=O: 160

// next item, IC50 requested
**Query** Consider the compound shown here: `COc1ccc2c(c1NC(=O)c1ccc(OCCCCCCOc3ccc(Cl)cc3)cc1)OCCC2=O` What is its recorded IC50?
**Result** 220

====

Assay: Inhibition of rabbit small-intestinal Acyl coenzyme A:cholesterol acyltransferase 1
Set-up: species or system Oryctolagus cuniculus
test-readout: IC50 (nM)
Please give a number only; it is taken to be in nM.

COc1ccc(OCCCCOc2ccc3c(c2NC(=O)C(C)(C)C)OCCC3=O)cc1: 43
Cc1cc(C)c2c(c1NC(=O)C(C)(C)CCCCCOc1ccc(Cl)cc1)OCCC2=O: 400
CCCCCCCCCCOc1ccc2c(c1NC(=O)C(C)(C)C)OCCC2=O: 14
COc1ccc2c(c1NC(=O)c1ccc(OCCCCCCOc3ccc(Cl)cc3)cc1)OCCC2=O: 26
CCCCCCCCCCOc1ccc(C(=O)Nc2c(OC)ccc3c2OCCC3=O)cc1: 12

**Query** I am curious: what IC50 value has been reported for `CCCCCCCCCCC(C)(C)C(=O)Nc1c(C)ccc2c1OCCC2=O` ?
**Result** 210
